# Assay notes: in vitro
# Cond: human, liver microsomes
Measurement type: microsomal CLint at 0.5 h, 1 µM (µL/min/mg)

COc1ccc(CC(=O)NC(=N)N[C@H](Cc2cc3ccccc3s2)C(=O)Nc2cc(S(N)(=O)=O)ccc2C)cc1OC
251
COc1ccc(CC(=O)NC(=N)N[C@H](CC2CCCCC2)C(=O)Nc2cc(S(=O)(=O)N3CCOCC3)ccc2C)cc1OC
212
COc1ccc(CC(=O)NC(=N)N[C@H](CCSC)C(=O)Nc2cc(S(N)(=O)=O)ccc2C)cc1OC
262
Cc1ccc(S(=O)(=O)N(C)C)cc1NC(=O)[C@@H](CC1CCCCC1)NC(=N)NC(=O)Cc1ccccc1C(F)(F)F
208

I: COc1ccc(CC(=O)NC(=N)N[C@H](CC2CCCCC2)C(=O)Nc2cc(N(S(C)(=O)=O)S(C)(=O)=O)ccc2C)cc1OC
II: COc1ccc(CC(=O)NC(=N)N[C@H](Cn2cc(-c3ccccc3)nn2)C(=O)Nc2cc(S(N)(=O)=O)ccc2C)cc1OC
// query Select the item with the higher value of microsomal CLint at 0.5 h, 1 µM from the options I and II listed. Answer with the label corresponding to your selection.
// result II

----------
# Assay notes: in vitro
# Cond: human, liver microsomes
Measurement type: microsomal CLint at 0.5 h, 1 µM (µL/min/mg)

Check out these entries, answers already filled in.
COc1ccc(CC(=O)NC(=N)N[C@@H](C(=O)Nc2cc(S(N)(=O)=O)ccc2C)C(C)(C)C)cc1OC
108
CCCC[C@@H](NC(=N)NC(=O)Cc1ccc(OC)c(OC)c1)C(=O)Nc1cc(S(N)(=O)=O)ccc1C
215
CNS(=O)(=O)c1ccc(C)c(NC(=O)[C@@H](CC2CCCCC2)NC(=N)NC(=O)Cc2cc(Cl)cc(OC)c2)c1
212
CNS(=O)(=O)c1ccc(C)c(NC(=O)[C@H](NC(=N)NC(=O)Cc2ccc(OC)c(OC)c2)C2CCCCC2)c1
211
Cc1ccc(S(=O)(=O)N(C)C)cc1NC(=O)[C@@H](CC1CCCCC1)NC(=N)NC(=O)C1CCCc2ccccc21 (stereo partly specified)
237
CCOC[C@@H](NC(=N)NC(=O)Cc1ccc(OC)c(OC)c1)C(=O)Nc1cc(S(N)(=O)=O)ccc1C
59.1
CNS(=O)(=O)c1ccc(C)c(NC(=O)[C@H](NC(=N)NC(=O)Cc2ccc(OC)c(OC)c2)C(C)C)c1
179
CNS(=O)(=O)c1ccc(C)c(NC(=O)[C@@H](CC2CCCCC2)NC(=N)NC(=O)Cc2ccc(OC)c(Cl)c2)c1
295
COc1ccc(CC(=O)NC(=N)N[C@H](CC2CCCCC2)C(=O)Nc2cc(S(=O)(=O)NC(C)C)ccc2C)cc1OC
277
CNS(=O)(=O)c1ccc(C)c(NC(=O)[C@@H](CC2CCCCC2)NC(=N)NC(=O)Cc2cc(Cl)cc(C(F)(F)F)c2)c1
239

A: COc1ccc(CC(=O)NC(=N)N[C@H](CC2CCCCC2)C(=O)Nc2cc(S(=O)(=O)N(C(C)C)C(C)C)ccc2C)cc1OC
B: COc1ccc(CC(=O)NC(=N)N[C@H](C)C(=O)Nc2cc(S(N)(=O)=O)ccc2C)cc1OC
C: CNS(=O)(=O)c1ccc(C)c(NC(=O)[C@H](CC2CCCCC2)NC(=N)NC(=O)Cc2ccc(OC)c(OC)c2)c1
D: COc1ccc(CC(=O)NC(=N)N[C@@H](C(=O)Nc2cc(S(N)(=O)=O)ccc2C)C(C)C)cc1OC
// query Please list the entries, largest microsomal CLint at 0.5 h, 1 µM first. Ranked list of labels, please, in the requested order.
// result A, C, D, B

----------
# Assay notes: in vitro
# Cond: mouse, liver microsomes
Measurement type: microsomal CLint at 0.5 h, 1 µM (µL/min/mg)

COc1ccc(CC(=O)NC(=N)N[C@H](CC2CCCCC2)C(=O)Nc2cc(S(=O)(=O)N(C(C)C)C(C)C)ccc2C)cc1OC
259

a: CNS(=O)(=O)c1ccc(C)c(NC(=O)[C@@H](CC(C)C)NC(=N)NC(=O)Cc2ccc(OC)c(OC)c2)c1
b: NC(=O)N1c2ccccc2C=Cc2ccccc21 [CARBAMAZEPINE]
c: COc1ccc(CC(=O)NC(=N)N[C@H](Cn2cc(-c3ccccc3)nn2)C(=O)Nc2cc(S(N)(=O)=O)ccc2C)cc1OC
d: COC[C@@H](NC(=N)NC(=O)Cc1ccc(OC)c(OC)c1)C(=O)Nc1cc(S(N)(=O)=O)ccc1C
e: COc1ccc(CC(=O)NC(=N)N[C@@H](C(=O)Nc2cc(S(N)(=O)=O)ccc2C)C2CC2)cc1OC
// query In this exercise, place the 5 compounds in ascending sequence of their recorded microsomal CLint at 0.5 h, 1 µM. Ranked list of labels, please, in the requested order.
// result b, d, e, a, c
(b: 7 µL/min/mg, d: 47.2 µL/min/mg, e: 100 µL/min/mg, a: 188 µL/min/mg, c: 367 µL/min/mg)

----------
# Assay notes: in vitro
# Cond: mouse, liver microsomes
Measurement type: microsomal CLint at 0.5 h, 1 µM (µL/min/mg)

Check out these entries, answers already filled in.
COc1ccc(CC(=O)NC(=N)N[C@H](CC2CCCCC2)C(=O)Nc2cc(S(=O)(=O)N(C)C)ccc2C)cc1F
241
COc1ccc(CC(=O)NC(=N)N[C@H](CN2CCOCC2)C(=O)Nc2cc(S(N)(=O)=O)ccc2C)cc1OC
49.1
COc1ccc(CC(=O)NC(=N)N[C@H](CC2CCCCC2)C(=O)Nc2cc(S(=O)(=O)NC3CCCCC3)ccc2C)cc1OC
232
COc1ccc(CC(=O)NC(=N)N[C@H](CC2CCCCC2)C(=O)Nc2cc(S(=O)(=O)N3CCOCC3)ccc2C)cc1OC
237

1: CNS(=O)(=O)c1ccc(C)c(NC(=O)[C@@H](CC2CCCCC2)NC(=N)NC(=O)Cc2ccc(F)c(OC)c2)c1
2: CC[C@@H](NC(=N)NC(=O)Cc1ccc(OC)c(OC)c1)C(=O)Nc1cc(S(N)(=O)=O)ccc1C
// query Consider entries 1 and 2 . Which has the numerically lower microsomal CLint at 0.5 h, 1 µM? Answer with the label corresponding to your selection.
// result 2
(2: 118 µL/min/mg, 1: 326 µL/min/mg)

I: Cc1ccc(S(=O)(=O)N(C)C)cc1NC(=O)[C@@H](CC1CCCCC1)NC(=N)NC(=O)Cc1ccc(Cl)c(Cl)c1
II: COc1ccc(CC(=O)NC(=N)N[C@H](CC2CCCCC2)C(=O)Nc2cc(N(S(C)(=O)=O)S(C)(=O)=O)ccc2C)cc1OC
// query Select the item with the higher value of microsomal CLint at 0.5 h, 1 µM from the options I and II listed. Answer with the label corresponding to your selection.
// result I

a: COc1ccc(CC(=O)NC(=N)N[C@@H](C(=O)Nc2cc(S(N)(=O)=O)ccc2C)C(C)C)cc1OC
b: COc1ccc(CC(=O)NC(=N)N[C@H](CC2CCCCC2)C(=O)Nc2cc(S(=O)(=O)NC3CC3)ccc2C)cc1OC
// query Select the item with the higher value of microsomal CLint at 0.5 h, 1 µM from the options a and b listed. Answer with the label corresponding to your selection.
// result b
(b: 354 µL/min/mg, a: 174 µL/min/mg)

I: CNS(=O)(=O)c1ccc(C)c(NC(=O)[C@H](NC(=N)NC(=O)Cc2ccc(OC)c(OC)c2)C2CCCCC2)c1
II: COc1ccc(CC(=O)NC(=N)N[C@H](CCSC)C(=O)Nc2cc(S(N)(=O)=O)ccc2C)cc1OC
// query Select the item with the higher value of microsomal CLint at 0.5 h, 1 µM from the options I and II listed. Answer with the label corresponding to your selection.
// result II

P: CNS(=O)(=O)c1ccc(C)c(NC(=O)[C@@H](CC2CCCCC2)NC(=N)NC(=O)Cc2cc(C(F)(F)F)cc(C(F)(F)F)c2)c1
Q: COc1ccc(CC(=O)NC(=N)N[C@H](CC(C)C)C(=O)Nc2cc(S(N)(=O)=O)ccc2C)cc1OC
R: Cc1ccc(S(=O)(=O)N(C)C)cc1NC(=O)[C@@H](CC1CCCCC1)NC(=N)NC(=O)Cc1cccc(C(F)(F)F)c1
// query In this exercise, place the 3 molecules in ascending sequence of their recorded microsomal CLint at 0.5 h, 1 µM. Ranked list of labels, please, in the requested order.
// result Q, P, R

A: CNS(=O)(=O)c1ccc(C)c(NC(=O)[C@@H](CC2CCCCC2)NC(=N)NC(=O)Cc2ccc(OC)c(OC)c2)c1
B: Cc1ccc(S(=O)(=O)N(C)C)cc1NC(=O)[C@@H](CC1CCCCC1)NC(=N)NC(=O)Cc1cc(C(F)(F)F)cc(C(F)(F)F)c1
C: CNS(=O)(=O)c1ccc(C)c(NC(=O)[C@H](NC(=N)NC(=O)Cc2ccc(OC)c(OC)c2)C(C)C)c1
// query In this exercise, place the 3 molecules in ascending sequence of their recorded microsomal CLint at 0.5 h, 1 µM. Ranked list of labels, please, in the requested order.
// result C, A, B
(C: 104 µL/min/mg, A: 177 µL/min/mg, B: 258 µL/min/mg)
